- tested-on: dopamine receptor (Rattus norvegicus, UniProt P61169)
- Construct: from tissue
- Sequence (P61169 whole entry): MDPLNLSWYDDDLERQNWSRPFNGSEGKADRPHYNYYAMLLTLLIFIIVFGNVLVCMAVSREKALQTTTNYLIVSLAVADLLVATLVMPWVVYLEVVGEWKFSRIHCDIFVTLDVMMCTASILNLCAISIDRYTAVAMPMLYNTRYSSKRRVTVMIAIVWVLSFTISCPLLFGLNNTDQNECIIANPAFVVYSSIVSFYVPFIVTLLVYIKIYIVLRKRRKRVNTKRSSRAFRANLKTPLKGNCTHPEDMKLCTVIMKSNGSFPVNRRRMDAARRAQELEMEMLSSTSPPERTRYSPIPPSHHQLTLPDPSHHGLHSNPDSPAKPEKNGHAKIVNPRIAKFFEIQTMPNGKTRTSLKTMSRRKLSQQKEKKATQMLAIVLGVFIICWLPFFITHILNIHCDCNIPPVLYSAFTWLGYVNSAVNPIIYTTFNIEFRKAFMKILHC
- assay-procedure: displacement of 3H-Domperidone, dopamine receptor labelling
- Assay type: binding
- run-conditions: 3H-Domperidone; read-out: INHIBITION CONSTANT Ki, 3H-Domperidone
Where a name gives a salt, the structure may show the parent alone.
# reported Ki; entries follow
Kindly provide the numeric value in nM only, without the unit symbol.

>  <compound>
NC1CCc2c(ccc(O)c2O)C1 (centres unmarked)

>  <display-unit>
nM

>  <observed-measurement>
240

$$$$

Req: Form field: reported Ki of Oc1cccc(C2CCCN(CC3Cc4ccccc4O3)C2)c1 (centres unmarked) [Compound 30, hydrobromide hydrate]
Resp: 48

###

# reported pKi; entries follow
- tested-on: dopamine receptor (Rattus norvegicus)
- Construct: from tissue
- assay-procedure: displacement of 3H-Spiperone, dopamine receptor labelling
- Type: binding
- run-conditions: 3H-Spiperone; read-out: INHIBITION CONSTANT Ki, 3H-Spiperone
- Source text: α-Adrenoceptor and dopamine receptors were labelled using methods similar to those previously reported [see S. Lazareno and S. R. Nahorski, Communication presented to Brit. Pharm. Soc., Bradford, 74 (1981), and P. Greengrass and R. Bremer, Eur. J. Pharmacol 55, 323 (1979)].
Where a name gives a salt, the structure may show the parent alone.
Schema: pKi number; meaning minus log10 of the concentration expressed in molar units.

>  <compound>
Oc1cccc(C2CCCN(CC3Cc4ccccc4O3)C2)c1 (centres unmarked) [Compound 30, hydrobromide hydrate]

>  <pKi>
6.70

$$$$

Next up:
Req: Form field: pKi recorded for NC1CCc2c(ccc(O)c2O)C1 (centres unmarked) [A-5,6-DTN] with dopamine receptor (Rattus norvegicus) (enter value)
Resp: 6.28

###

- tested-on: α-Adrenoceptor
- assay-procedure: displacement of 3H-Prazosin, α-adrenoceptor labelling
- Type: binding
- run-conditions: read-out: […] Ki, 3H-Prazosin
experimental-readout: Ki
Report as: number unit

Req: Form field: reported Ki of NC1CCc2cc(O)c(O)cc2C1 (stereo not shown)
Resp: 10 µM

###

# reported pKi; entries follow
- tested-on: α-Adrenoceptor
- assay-procedure: displacement of 3H-Prazosin, α-adrenoceptor labelling
- Format: binding
- run-conditions: read-out: INHIBITION CONSTANT Ki, 3H-Prazosin
Where a name gives a salt, the structure may show the parent alone.
Schema: pKi number; meaning minus log10 of the concentration expressed in molar units.

>  <compound>
Oc1cccc(C2CCCN(CC3Cc4ccccc4O3)C2)c1 (centres unmarked) [Compound 30, hydrobromide hydrate]

>  <pKi>
6.68

$$$$

Next up:
Req: Form field: reported pKi of NC1CCc2c(ccc(O)c2O)C1 (centres unmarked) [A-5,6-DTN]
Resp: 4.80

###

- tested-on: dopamine receptor (Rattus norvegicus, UniProt P61169)
- Construct: from tissue
- assay-procedure: displacement of 3H-Domperidone, dopamine receptor labelling
- Type: binding
experimental-readout: pKi
Schema: pKi number; meaning minus log10 of the concentration expressed in molar units.

Req: Form field: reported pKi of NC1CCc2cc(O)c(O)cc2C1 (stereo not shown) [A-6,7-DTN]
Resp: 7.92
